Where these numbers come from: ChEMBL document CHEMBL1201862

tested on: SNB-75; assay: NCI tumour cell line growth inhibition, 48 h
Active and inactive are the calls of the source. Cut-off read from the data, not from the text of the source: active = GI50 up to about 1.1 µM and inactive = higher.
measure name: GI50

Answered cases to consult:
molecule | target or test system | GI50
CC/C(C)=C1\CCC(CN2CCOCC2)C1=O (stereo not given) | SNB-75 | 25.2 µM (inactive)
CCOC(=O)c1cc(Sc2ccc(N)c(C(=O)OCC)c2)ccc1N | SNB-75 | 12.3 µM (inactive)
COc1cc(-c2cc(=O)c3c(O)c(OC)c(OC)c(OC)c3o2)cc(OC)c1OC | SNB-75 | 2.23 µM (inactive)
CCOc1ccc(N/C(=C(/C(Cl)=C(/Cl)NC(C)(C)C)[N+](=O)[O-])n2nnc3ccccc32)cc1 | SNB-75 | 24.2 µM (inactive)

Indicate its recorded GI50; the molecule in question is CCCCS(=O)(=O)CCC(N)P(=O)(O)O (stereo not given)
> 100 µM (inactive)
